Taken from patent US20230382920A1.

- measurementDescription: Pharmacokinetics study of KDG-0388 in male CD1 mice (Example 2)
- Format: in vivo
- appliedConditions: mouse; male CD1 mice, plasma, 200 mg/kg PO, 16 h; read-out: Concentration PO_Mean

# compound, concentration at 16 h, ng/mL
rows = [
    ("Cc1n[nH]c2c1C(c1cc(C#C[C@H]3C[C@@H](NC(=O)OC(C)(C)C)C3)cc(CO)c1)(C(C)C)C(C#N)=C(N)O2 (stereo partly shown) [KDG-0388]", 3.04),
]

====

- measurementDescription: Pharmacokinetics study of KDG-0271 in male CD1 mice (Example 3)
- Assay type: in vivo
- appliedConditions: mouse; male CD1 mice, plasma, 200 mg/kg PO, 0.25 h; read-out: Concentration PO_Mean
measurementLabel: concentration at 0.25 h (ng/mL)

# compound, measured
records = [
    ("Cc1n[nH]c2c1C(c1cc(C#CC3CN(C(=O)OC(C)(C)C)C3)cc(CO)c1)(C(C)C)C(C#N)=C(N)O2 (stereo not shown)", 701),
]
